System: NCI-H226 lung
Test: NCI-60 one-dose screen, 48 h (100 = growth as untreated, 0 = no growth, -100 = all killed)
Conditions: 10 µM unless noted
This is part of a sample that, as a whole, favours compounds with a hit. Of some 83,000 tested, about 20% had one in any assay.
The molecules listed here are annotated with their growth.
Report the figure in % without appending any unit label.

Example molecules with recorded growth:
(Q) Param item = c1ccc(Nc2nc(Nc3ccccc3)nc(Nc3ccccc3)n2)cc1 ; retrieve measured growth.
(A) 89

(Q) What growth value was documented for this molecule, Cc1ccc2nc(Cl)cc(=O)n2c1 ?
(A) 108

(Q) // returns reported growth for input O=[N+]([O-])c1cccc(-c2nc3sccn3c2-c2ccnc(NCCCNS(=O)(=O)c3ccc(Cl)cc3)n2)c1
(A) 44.2

(Q) What does the data say about its growth? Entry: COc1ccncc1S(=O)(=O)NC(=O)Nc1ccc(Cl)c(Cl)c1
(A) 92.5

(Q) Can you look up the measured growth of O=S(=O)(NCCNc1nccc(-c2c(-c3ccc(F)cc3)nc3sccn23)n1)c1ccc(F)cc1 for me?
(A) 72.8

(Q) Item COc1ccc(N=Cc2c(O)ccc3c2oc2cc(Cl)c(O)c(Cl)c23)cc1 has what recorded growth?
(A) 101

(Q) Can you share its growth? I mean this molecule: COc1ccc(C2C(C#N)=C(N)Oc3c2ccc2ccccc32)cc1 (stereo not drawn)
(A) 39.4

(Q) Which measured growth value corresponds to COc1ccc(/C=C2\N=C(c3ccccc3)N(C(=O)c3ccccc3O)NC2=O)cc1 ?
(A) 101

(Q) Any idea what its growth is? The molecule is COc1ccc(-c2c(N)n[nH]c2-c2cc3c(c(OC)c2OC)OCO3)cc1
(A) 99.9

(Q) Report growth for S=C1CC(=S)NC(=S)N1 please.
(A) 103

---
(Q) Any idea what growth was measured for Cc1ccc(S(=O)(=O)NCCNc2cc(-c3cn(C(C)(C)C)nc3-c3cccc(O)c3)ccn2)cc1 ?
(A) 61.8

###

Tested on: SW-620 colon
Experiment: NCI-60 one-dose screen, 48 h
Details: 10 µM unless noted
The panel holds about 83,000 compounds, 20% with a hit somewhere; the sample as a whole holds those more often. The source made the active and inactive calls. The calls were made as follows: active = growth percent below 10; inactive = the rest.
Could you please pick one outcome from this set? active, inactive

(Q) Tell me the assay call for Fc1ccc(-c2nc(-c3nc4ncccc4[nH]3)cc3c2[nH]c2ccccc23)cc1F please.
(A) inactive

(Q) Returns: the outcome recorded for CC(NNC(C)c1ccccc1)c1ccccc1 (configuration not stated) in this assay.
(A) inactive

(Q) Could you check what this test reported for Cn1ccc(=O)c(S(N)(=O)=O)c1 ?
(A) inactive

(Q) Which result was noted for this compound in the test: Nc1cc2c([nH]c[n+]2CC#CCCl)c(SCC#CCCl)n1
(A) active

Continuing:
(Q) # outcome recorded in this test, key = COc1ccc(/C=C/c2c(C(C)=O)c(C)nc3ccccc23)cc1
(A) inactive

(Q) Record request — test call for CCCOC(=O)n1cccc1
(A) inactive

###

Tested on: SK-MEL-5 melanoma
Assay: NCI-60 one-dose screen, 48 h
Conditions: 10 µM unless noted
Protocol: Growth inhibition of the SK-MEL-5 human tumor cell line is measured as a screen for anti-cancer activity. Cells are grown in 96 well plates and exposed to the test compound for 48 hours. Compounds are tested at a single concentration, which is 10^-5 M for most compounds. The reported endpoint is percent growth (GI% or GIPRCNT), where numbers from 0 - 100% represent growth inhibition, and numbers from -100% - 0 represent cell death. For example, a value of 40 represents 60% growth inhibition. […]
This is part of a sample that, as a whole, favours compounds with a hit. Of some 83,000 tested, about 20% had one in any assay. Activity calls are given as the source filed them. The calls were made as follows: active = growth percent below 10; inactive = the rest.
Return exactly one item of 1 = active, 0 = inactive

Field: example entries. Status: answers known.
(Q) Tell me the assay call for O=C(Nc1cccc(-n2cc(-c3ccncc3)c(-c3ccc(Cl)c(O)c3)n2)c1)Nc1cccc(C(F)(F)F)c1 please.
(A) 1

(Q) // param item: CCN(CC)c1ccc(N=O)cc1 ; yields the recorded call
(A) 0

(Q) Which outcome did this test record for the compound CC(C)(C)OC(=O)NC(CSCc1ccccc1)C(=O)ON1C(=O)CCC1=O (stereo not given) ?
(A) 0

(Q) Hi team, can someone confirm the assay call for CN1CCN(Cc2ccc(NC(=O)c3cncc(C#Cc4cnc(N)c5cnccc45)c3)cc2C(F)(F)F)CC1 ?
(A) 1

(Q) How did this test come out for N/C(=N\C(N)=N\c1nc2ccccc2s1)c1cccc(Br)c1 ?
(A) 0

(Q) Query: recorded result category for CCCCCCCC[C@@H](O)CC(=O)N[C@@H](CC(N)=O)C(=O)N[C@@H](CCC(N)=O)C(=O)N[C@@H](CC(=O)c1cc(C)cc(O)c1C(=O)c1c(O)cccc1O)CC(C)C in this test
(A) 0

(Q) Kindly provide the recorded test outcome for the following compound: O=C(Nc1ccc(Cl)c(Cl)c1)NS(=O)(=O)c1cnccc1Oc1ccc(F)cc1
(A) 0

(Q) Short answer needed: outcome of this test for COc1cc(/C=N\NC(=O)CN2CCN(c3cc4c(cc3F)c(=O)c(C(=O)N/N=C/c3cc(OC)c(OC)c(OC)c3)cn4C3CC3)CC2)cc(OC)c1OC ?
(A) 1

(Q) Lab log entry: CC(C)CSc1nc(NN)c(C#N)c(-c2ccccc2)n1 — outcome as called in the assay?
(A) 0

(Q) GET /call?item= N#Cc1c(Nc2ccccc2)nc2n(c1=O)-c1ccccc1Sc1ccccc1-2 returns the recorded outcome of this test.
(A) 0

In the following, a different compound is considered.
(Q) Recorded test call requested for COc1ccc(-c2nc(/C=C3/C(=O)Nc4ccc(F)cc43)c3ccccn23)cc1
(A) 0

###

System: A498 renal
Assay: NCI-60 one-dose screen, 48 h (100 = growth as untreated, 0 = no growth, -100 = all killed)
Conditions: 10 µM unless noted
Compounds without any hit were thinned out: in the full panel of roughly 83,000, 20% have a hit.
growth vs 90%: at or above is class 1, below is class 0.

Worked examples, 4 compounds total:
(Q) State whether the measured growth reaches 90%, counting equality as reaching it, for N=C(N)c1ccc(-c2cc(Cl)cc(Cl)c2)cn1
(A) class 0

(Q) Given COc1cccc(-c2cc3c(O)cc(C#N)cc3[nH]2)c1 , state whether its growth is at least 90%.
(A) class 0

(Q) Hi, just wondering whether COc1ccc(/C=C2/C(=O)NC(SCC(=O)N3CCN(c4cc5c(cc4F)c(=O)c(C(=O)O)cn5C4CC4)CC3)=NC2N)cc1OC (stereo unspecified) shows growth of 90% or higher.
(A) class 1

(Q) Dear colleague, could you confirm whether CCOC(=O)c1ccc2c(c1)c1c(C)c3cccnc3c(C)c1n2C has growth at or above 90%?
(A) class 0

More entries:
(Q) Form field: growth at least 90%? Entry: COc1ccc(Cn2cc3c(c2-c2cc(OC)c(OC)c(OC)c2)CCc2cnoc2-3)cc1
(A) class 0

(Q) Has O=c1[nH]c(NCc2ccccc2)nc2nc(Nc3ccc(NC(=S)Nc4ccccc4)cc3)nc(-c3ccc(O)cc3O)c12 a recorded growth greater than or equal to 90%?
(A) class 1

(Q) For this compound, is measured growth 90% or higher? CCN1CCN(CC(=O)N2c3cccc4cccc(c34)N(C(=O)CN3CCN(CC)CC3)C2c2cn(-c3ccccc3)nc2-c2cccc([N+](=O)[O-])c2)CC1
(A) class 0

(Q) Reported growth reaches at least 90% for OC(c1cc2cc(Br)ccc2c2cc(Br)ccc12)C1CCCCN1 (stereo unspecified) ?
(A) class 0

(Q) Say whether N=C(N)c1ccc(-c2ccc(-c3cncc4ccccc34)s2)cc1F shows growth of 90% or more.
(A) class 0

(Q) Has N/C(=N\S(=O)(=O)c1ccccc1)Nc1nc2ccccc2s1 a recorded growth greater than or equal to 90%?
(A) class 1

(Q) Check if growth >= 90% (inclusive). Item: O=[N+]([O-])c1cccc(-c2nc3sccn3c2-c2ccnc(NCCCNS(=O)(=O)c3ccc(Cl)cc3)n2)c1
(A) class 0

(Q) Given the entry CC1(C)C(=O)/C(=C\c2ccc(C(F)(F)F)cc2)C[C@]2(C)[C@H]3CC[C@@H]4[C@H]5[C@H](C(=O)/C=C/c6ccc(C(F)(F)F)cc6)CC[C@]5(CO)CC[C@@]4(C)[C@]3(C)CC[C@@H]12 , answer whether its growth meets or surpasses 90%.
(A) class 1

(Q) Determine whether this compound has growth no lower than 90%: O=C(Nc1ccncc1)C(=O)c1cn(S(=O)(=O)c2ccc(Oc3ccccc3)cc2)c2ccccc12
(A) class 0

(Q) Does the compound CCCCCc1cc[n+](CC(=O)c2ccc([N+](=O)[O-])cc2)cc1 have recorded growth that is 90% or more?
(A) class 1

(Q) Confirm if growth reported for the compound O=[N+]([O-])c1cc(Cl)c2[nH]c3c(Cl)cc([N+](=O)[O-])cc3c2c1 is 90% or above.
(A) class 0

(Q) Test whether the compound CC(C)(C)NCCC(O)c1cc2c(Cl)cc(Cl)cc2c2cc(C(F)(F)F)ccc12 (stereo unspecified) records growth of 90% or higher.
(A) class 0

(Q) hey, is growth for this one >= 90%? C[n+]1c(/C=C/c2c(O)ccc3ccccc23)ccc2ccccc21
(A) class 0

(Q) Does growth meet or surpass 90% for C=C(C)[C@@H]1CC[C@]2(C(=O)N3CCNCC3)CC[C@]3(C)[C@H](CC[C@@H]4[C@@]5(C)C/C(=C/c6ccncc6)C(=O)C(C)(C)[C@@H]5CC[C@]43C)[C@@H]12 ?
(A) class 1

(Q) Reported growth at or above 90%? Cc1ccc(C(=O)NCCCNc2nccc(-n3ccc4cccnc43)n2)cc1
(A) class 0

(Q) Could you verify whether the entry CC(C)(C)OC(=O)NCCc1ccc(N=C=S)cc1 shows growth of no less than 90%?
(A) class 0

(Q) I'd appreciate it if you could say whether O=c1ccn(C2CC(O)C(O)C(CO)O2)c(=O)[nH]1 (stereo unspecified) has growth at least equal to 90%.
(A) class 1

(Q) Could you verify whether the entry O=C1/C(=C/c2ccc([N+](=O)[O-])cc2)CN(C(=O)CCN2CCC(=NO)CC2)C/C1=C\c1ccc([N+](=O)[O-])cc1 shows growth of no less than 90%?
(A) class 0
